test system: HBL 100 (Breast); experiment: MTT cytotoxicity assay, 48 hours (Example 14); type: cell-based, human; settings: HBL100, 1 μM
Non-standard residues stand in square brackets, D forms with d. Residues, ends and D or L forms follow the SMILES beside them. *: point of attachment. Octanoyl = CCCCCCCC(=O)*; Ac5c = NC1(C(=O)O)CCCC1; Deg = CCC(N)(CC)C(=O)O; Aib = CC(C)(N)C(=O)O; Butyryl = CCCC(=O)*
readout label: Percentage cytotoxicity (%)
Numbers only, in %.

Worked examples follow.
| compound | target desc | Percentage cytotoxicity [%] |
| --- | --- | --- |
| CCC(CC)(NC(=O)[C@H](Cc1c[nH]c2ccccc12)NC(=O)[C@H](CCC(N)=O)NC(=O)[C@H](N)Cc1ccccc1)C(=O)N[C@H](C(=O)NCC(=O)N[C@@H](Cc1c[nH]cn1)C(=O)N[C@@H](CC(C)C)C(N)=O)C(C)C [SEQ ID: 9, D-Phe-Gln-Trp-Deg-Val-Gly-His-Leu-NH2] (H-[dF]QW[Deg]VGHL-NH2; N-terminus assumed) | HBL 100 (Breast) | 17.2 |
| CC(C)C[C@H](NC(=O)[C@H](Cc1c[nH]cn1)NC(=O)C1(NC(=O)[C@@H](NC(=O)[C@H](C)NC(=O)[C@H](Cc2c[nH]c3ccccc23)NC(=O)[C@H](CCC(N)=O)NC(=O)[C@H](N)Cc2ccccc2)C(C)C)CCCC1)C(N)=O [SEQ ID: 10, D-Phe-Gln-Trp-Ala-Val-Ac5c-His-Leu-NH2] (H-[dF]QWAV[Ac5c]HL-NH2; N-terminus assumed) | HBL 100 (Breast) | 18.5 |
| CCCC(=O)N[C@H](Cc1ccccc1)C(=O)N[C@@H](CCC(N)=O)C(=O)N[C@@H](Cc1c[nH]c2ccccc12)C(=O)N[C@@H](C)C(=O)N[C@H](C(=O)NC(C)(C)C(=O)N[C@@H](Cc1c[nH]cn1)C(=O)N[C@@H](CC(C)C)C(N)=O)C(C)C [SEQ ID: 11] (Butyryl-[dF]QWAV[Aib]HL-NH2) | HBL 100 (Breast) | 24.5 |

Switching to the query record.
Request: Identify measured Percentage cytotoxicity associated with CCCCCCCC(=O)N[C@H](Cc1ccccc1)C(=O)N[C@@H](CCC(N)=O)C(=O)N[C@@H](Cc1c[nH]c2ccccc12)C(=O)N[C@@H](C)C(=O)N[C@H](C(=O)NC(C)(C)C(=O)N[C@@H](Cc1c[nH]cn1)C(=O)N[C@@H](CC(C)C)C(N)=O)C(C)C [SEQ ID: 12] (Octanoyl-[dF]QWAV[Aib]HL-NH2)
Result: 11.8

====

Test system: HuTu80 (Stomach)
Test: MTT cytotoxicity assay, 48 hours (Example 14)
Format: cell-based, human
Conditions: HuTu80, 1 μM
Description: The cytotoxic effect of peptide sequences SEQ ID NO: 9, SEQ ID NO: 10, SEQ ID NO: 11 and SEQ ID NO: 12, were studied by MTT assay which is based on the principle of uptake of MTT[3-[4,5-dimethylthiazol-2-yl]-2,5-diphenyl tetrazolium bromide], a tetrazolium salt by the metabolically active cells where it is metabolized by active mitochondria into a blue colored formazan product which can be read spectrophotometrically. Tumor cells KB (oral squamous). […]
Non-standard residues stand in square brackets, D forms with d. Residues, ends and D or L forms follow the SMILES beside them. *: point of attachment. Octanoyl = CCCCCCCC(=O)*; Deg = CCC(N)(CC)C(=O)O; Aib = CC(C)(N)C(=O)O; Butyryl = CCCC(=O)*
Kindly state Percentage cytotoxicity for each of the entries shown.
Give bare numbers, in %.

| molecule | result value |
| --- | --- |
| CCCC(=O)N[C@H](Cc1ccccc1)C(=O)N[C@@H](CCC(N)=O)C(=O)N[C@@H](Cc1c[nH]c2ccccc12)C(=O)N[C@@H](C)C(=O)N[C@H](C(=O)NC(C)(C)C(=O)N[C@@H](Cc1c[nH]cn1)C(=O)N[C@@H](CC(C)C)C(N)=O)C(C)C [SEQ ID: 11] (Butyryl-[dF]QWAV[Aib]HL-NH2) | 14.2 |
| CCCCCCCC(=O)N[C@H](Cc1ccccc1)C(=O)N[C@@H](CCC(N)=O)C(=O)N[C@@H](Cc1c[nH]c2ccccc12)C(=O)N[C@@H](C)C(=O)N[C@H](C(=O)NC(C)(C)C(=O)N[C@@H](Cc1c[nH]cn1)C(=O)N[C@@H](CC(C)C)C(N)=O)C(C)C [SEQ ID: 12] (Octanoyl-[dF]QWAV[Aib]HL-NH2) | 20.0 |

Request: Identify measured Percentage cytotoxicity associated with CCC(CC)(NC(=O)[C@H](Cc1c[nH]c2ccccc12)NC(=O)[C@H](CCC(N)=O)NC(=O)[C@H](N)Cc1ccccc1)C(=O)N[C@H](C(=O)NCC(=O)N[C@@H](Cc1c[nH]cn1)C(=O)N[C@@H](CC(C)C)C(N)=O)C(C)C [SEQ ID: 9, D-Phe-Gln-Trp-Deg-Val-Gly-His-Leu-NH2] (H-[dF]QW[Deg]VGHL-NH2; N-terminus assumed)
Result: 14.2

Reference source: patent US6989371B1
